The values you see were collected from a polymer gas permeability compilation.

Reported Metric: CH4 permeability (Barrer)
Give bare numbers, in Barrer.

Previously resolved entries follow.
// CH4 permeability value for *Oc1ccc2c(c1)C1(CC2(C)C)CC(C)(C)c2ccc(Oc3ccc4c(c3)C(=O)N(c3cccc(N5C(=O)c6ccc(*)cc6C5=O)c3)C4=O)cc21 (repeat unit) : 0.155

// *O[Si](*)(C)CCCCCCCC (repeat unit) : CH4 permeability value = 313

Record *Oc1ccc(C(c2ccc(Oc3ccc(S(=O)(=O)c4ccc(*)cc4)cc3)cc2)(C(F)(F)F)C(F)(F)F)cc1 (repeat unit) . Reported CH4 permeability: 0.55

CH4 permeability in this record for *Oc1ccc(C(C)(C)c2ccc(Oc3ccc(S(=O)(=O)c4ccc(*)cc4)cc3)c(C)c2)cc1C (repeat unit) : 0.07

Noted for *c1cccc(Oc2cccc(-n3c(=O)c4cc5c(=O)n(*)c(=O)c5cc4c3=O)c2)c1 (repeat unit) : its CH4 permeability reads 0.008

What the record says about *c1ccc(Cc2ccc(N3C(=O)c4ccc(Oc5ccc(Oc6ccc7c(c6)C(=O)N(*)C7=O)cc5)cc4C3=O)cc2)cc1 (repeat unit) : CH4 permeability is 0.0222

For every listed record, write down its CH4 permeability.
1. *Oc1ccc(Oc2ccc(C(=O)c3ccc(*)cc3)cc2)c(-c2cccc(C(F)(F)F)c2)c1 (repeat unit)
2. *Oc1ccc(Cc2ccc(Oc3ccc(S(=O)(=O)c4ccc(*)cc4)cc3)cc2)cc1 (repeat unit)
3. *c1ccc(C(c2ccc(N3C(=O)c4ccc(C(c5ccc6c(c5)C(=O)N(*)C6=O)(C(F)(F)F)C(F)(F)F)cc4C3=O)cc2)(C(F)(F)F)C(F)(F)F)cc1 (repeat unit)
4. *c1ccc(N(c2ccc(OC)cc2)c2ccc(N3C(=O)c4ccc(C(c5ccc6c(c5)C(=O)N(*)C6=O)(C(F)(F)F)C(F)(F)F)cc4C3=O)cc2)cc1 (repeat unit)
5. *C(=C(*)c1ccc([Si](C)(C)C)cc1)c1ccccc1 (repeat unit)
6. *C(=C(*)c1ccc([Si](C(C)C)(C(C)C)C(C)C)cc1)c1ccccc1 (repeat unit)
7. *Oc1ccc(Oc2ccc(C(=O)c3ccc(*)cc3)cc2)cc1C(C)(C)C (repeat unit)
8. *c1ccc(Oc2ccc(C(c3ccccc3)(c3ccccc3)c3ccc(Oc4ccc(*)cc4)cc3)cc2)cc1 (repeat unit)

result:
[0.041, 0.19, 1.6, 0.5, 1550, 315, 0.221, 0.14]

Count: 2. Required value per item: CH4 permeability.
1. *CC(*)[Si](C)(C)C (repeat unit)
2. *C1C2CC(CF)C(C2)C1* (repeat unit)

result:
18
13
